Just for reference, ChEMBL document CHEMBL6096715 is where these values come from.

molecular target: Non-receptor tyrosine-protein kinase TYK2 (Homo sapiens, UniProt P29597)
Sequence (P29597 whole entry): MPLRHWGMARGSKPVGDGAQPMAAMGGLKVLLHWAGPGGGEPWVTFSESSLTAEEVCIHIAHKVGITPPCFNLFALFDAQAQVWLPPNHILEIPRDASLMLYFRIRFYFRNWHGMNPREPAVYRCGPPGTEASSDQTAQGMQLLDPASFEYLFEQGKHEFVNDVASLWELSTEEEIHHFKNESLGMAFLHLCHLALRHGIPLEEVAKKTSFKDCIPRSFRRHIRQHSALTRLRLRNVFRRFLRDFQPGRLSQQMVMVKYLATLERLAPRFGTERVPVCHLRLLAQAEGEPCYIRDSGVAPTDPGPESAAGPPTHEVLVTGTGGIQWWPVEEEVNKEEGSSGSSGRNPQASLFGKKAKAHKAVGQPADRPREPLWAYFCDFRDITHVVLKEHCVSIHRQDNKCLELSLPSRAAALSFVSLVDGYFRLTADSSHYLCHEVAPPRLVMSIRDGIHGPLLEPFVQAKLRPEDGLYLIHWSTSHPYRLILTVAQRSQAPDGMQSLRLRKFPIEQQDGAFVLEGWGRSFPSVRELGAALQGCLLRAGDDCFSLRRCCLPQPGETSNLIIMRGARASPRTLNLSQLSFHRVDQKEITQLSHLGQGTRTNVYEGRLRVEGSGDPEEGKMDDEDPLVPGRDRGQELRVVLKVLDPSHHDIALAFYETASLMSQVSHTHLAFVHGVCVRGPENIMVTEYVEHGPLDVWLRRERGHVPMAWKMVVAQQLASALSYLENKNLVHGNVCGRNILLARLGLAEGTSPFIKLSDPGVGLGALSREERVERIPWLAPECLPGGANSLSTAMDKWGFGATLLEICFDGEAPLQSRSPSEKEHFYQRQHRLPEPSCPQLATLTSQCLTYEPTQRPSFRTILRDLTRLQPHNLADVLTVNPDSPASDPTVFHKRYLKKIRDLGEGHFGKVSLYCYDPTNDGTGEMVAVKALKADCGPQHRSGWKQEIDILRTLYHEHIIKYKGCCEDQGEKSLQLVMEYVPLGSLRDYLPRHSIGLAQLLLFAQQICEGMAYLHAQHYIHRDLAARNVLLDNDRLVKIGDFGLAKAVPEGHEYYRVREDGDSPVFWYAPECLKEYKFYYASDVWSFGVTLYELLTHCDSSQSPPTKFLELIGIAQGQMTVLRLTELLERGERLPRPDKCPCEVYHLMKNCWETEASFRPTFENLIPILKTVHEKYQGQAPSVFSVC
readout.label: pIC50
# pIC50 = -log10(concentration in molar units)

Query: Looking for the measured pIC50 of `Cn1cc(-c2cc3c(N4C[C@H]5CC[C@@H](C4)N5[C@H]4C[C@@H](C#N)C4(C)C)ccnn3c2)cn1` , can you help?
Reply: 8.63
